These measurements were taken from PubChem BioAssay AID651815.

system_name: DNA dC->dU-editing enzyme APOBEC-3F (Homo sapiens)
protocol_notes: qHTS for inhibitors of Vif-A3F interactions: Cherry picks counterscreen; further: nearly all actives have a fitted effect of over 65% in size
stated_conditions: HeLa A3F-eYFP/Vif cells, eYFP fluorescence, 24 h; series mostly up to 46.1 µM
About 1,100 (52%) of roughly 2,100 compounds were called active. About 29% were inconclusive and are not listed. The call rests on the fitted dose curve; in most records, active means well fitted inhibition curve with a large enough effect; inconclusive means small, poorly fitted or top-dose-only effect; inactive means no such curve, though single readings can be large or run the other way. The set was probably picked from earlier hits. The list shows a part of the results.
Use one of these outcomes when replying: active, inactive

Would you please look over these solved cases?
molecule=CCn1cc(/C=C/c2cc[n+](C)cc2)c2ccccc21 class_assignment=active
molecule=CN1C(=O)c2cccc(NCCCN3C(=O)c4ccccc4C3=O)c2C1=O class_assignment=active
molecule=CN1CCc2c(sc(NC(=O)CSc3ccc(F)cc3)c2-c2nc3ccccc3s2)C1 class_assignment=active

How was COc1ccc(NC(=O)C2(C)Cc3c(-c4cccc(C(N)=O)c4)ccnc3O2)cc1 (stereo unspecified) classified in this test?
active

Per the assay record, what outcome was assigned to C=CCn1cc(/C=C/c2cc[n+](C)cc2)c2ccccc21 ?
active

# outcome recorded in this test, key = CC(=O)N1CCc2c(sc(NC(=O)CSc3ccccc3)c2-c2nc3ccccc3s2)C1
active

Fill in: this test's call for O=C(N/N=C/c1cccc2ccccc12)c1n[nH]c2c1CCCC2 is ___
active

Tell me the assay call for CC(=O)Nc1ccc(S(=O)(=O)N2CCSc3ccccc32)cc1 please.
active

Just curious, what result did N=C1S/C(=C\c2ccc(-c3cccc(Cl)c3)o2)C(=O)N1c1nccs1 get here?
active

Test call for this molecule, please: Cc1cc(N/N=C/c2ccc(O)cc2O)nc(-n2nc(C)cc2C)n1
inactive

Any idea what this test logged for Cc1noc(C)c1COc1cccc(C(=O)OCC(=O)N2CC(=O)Nc3ccccc32)c1 ?
active

So what was the verdict on O=C(c1ccccc1)c1c2c(cc3sc4ccccc4[n+]13)-c1cccc3cccc-2c13 in this test?
active

Status in this test for Cc1ccc(-c2cc(-c3ccco3)c3c(N)c(C(=O)NN)oc3n2)cc1 ?
active

###

system_name: DNA dC->dU-editing enzyme APOBEC-3F (Homo sapiens) (UniProt Q8IUX4)
Sequence (Q8IUX4 whole entry, looked up): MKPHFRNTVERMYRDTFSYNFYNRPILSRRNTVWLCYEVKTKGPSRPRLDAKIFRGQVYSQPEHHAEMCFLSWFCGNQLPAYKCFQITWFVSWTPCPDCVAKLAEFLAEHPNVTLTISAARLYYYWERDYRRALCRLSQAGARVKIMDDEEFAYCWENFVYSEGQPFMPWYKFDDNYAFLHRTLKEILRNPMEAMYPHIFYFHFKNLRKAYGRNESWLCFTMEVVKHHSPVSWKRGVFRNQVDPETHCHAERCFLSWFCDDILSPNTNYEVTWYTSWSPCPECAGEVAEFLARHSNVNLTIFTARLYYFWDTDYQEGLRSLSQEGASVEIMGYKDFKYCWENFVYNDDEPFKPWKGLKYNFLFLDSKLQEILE
protocol_notes: qHTS for inhibitors of Vif-A3F interactions: Cherry picks counterscreen; further: nearly all actives have a fitted effect of over 65% in size
stated_conditions: HeLa A3F-eYFP/Vif cells, eYFP fluorescence, 24 h; series mostly up to 46.1 µM
About 1,100 (52%) of roughly 2,100 compounds were called active. Not shown: some 29% with an inconclusive outcome. Calls follow the shape of the dose curve; as a rule, active = well fitted inhibition curve with a large enough effect; inconclusive = small, poorly fitted or top-dose-only effect; inactive = no such curve, though single readings can be large or run the other way. So high a share suggests a set chosen from earlier hits. Some of the results follow.
Reply using exactly one outcome from active, inactive

Before answering, review these 4 worked examples.
compound=Cc1ccc2nc(NS(=O)(=O)c3ccc(Cl)cc3)c(Nc3ccc(C(=O)O)cc3)nc2c1 class_assignment=active
compound=Cc1c(C(=O)Nc2ccc(C(C)C)cc2)sc2nc3n(c(=O)c12)CCC3 class_assignment=inactive
compound="Cn1cccc1/C=C1\\CC(C(C)(C)C)C/C(=C\\c2cccn2C)C1=O (stereo not given)" class_assignment=active
compound=CCOC(=O)N1CCC(Nc2nc3ccccc3n3nnnc23)CC1 class_assignment=active

For this compound, state the assay outcome: CN1C2CCC1/C(=C\c1ccccc1)C(=O)/C2=C\c1ccccc1
active

###

system_name: DNA dC->dU-editing enzyme APOBEC-3F (Homo sapiens)
protocol_notes: qHTS for inhibitors of Vif-A3F interactions: Cherry picks counterscreen; further: nearly all actives have a fitted effect of over 65% in size
stated_conditions: HeLa A3F-eYFP/Vif cells, eYFP fluorescence, 24 h; series mostly up to 46.1 µM
Out of some 2,100 compounds screened, about 1,100 (52%) were called active. Roughly 29% stayed inconclusive and do not appear here. The call rests on the fitted dose curve; in most records, active means well fitted inhibition curve with a large enough effect; inconclusive means small, poorly fitted or top-dose-only effect; inactive means no such curve, though single readings can be large or run the other way. So high a share suggests a set chosen from earlier hits. Some of the results follow.
Give one outcome, nothing more. List: active, inactive

molecule=N#Cc1cc2ccccc2nc1SCc1ccccn1 class_assignment=active

What was the test verdict on CCS(=O)(=O)N1N=C(c2ccc(C)cc2)CC1c1cc2ccc(OC)cc2nc1Cl (stereo not drawn) ?
inactive

# lookup: test call for COc1ccc2nc(C)cc(SCC(=O)N/N=C/c3cccc4ccccc34)c2c1
active

###

system_name: DNA dC->dU-editing enzyme APOBEC-3F (Homo sapiens) (UniProt Q8IUX4)
protocol_notes: qHTS for inhibitors of Vif-A3F interactions: Cherry picks counterscreen; further: nearly all actives have a fitted effect of over 65% in size
stated_conditions: HeLa A3F-eYFP/Vif cells, eYFP fluorescence, 24 h; series mostly up to 46.1 µM
From the text: The recent discovery and characterization of host restriction factors, which provide a potent defense to invading retroviruses, has provided new targets for antiviral drug development. […] In the presence of an inhibitor, it is expected that Vif will be unable to degrade A3G-eYFP and/or A3F-eYFP, resulting in an increase in yellow fluorescence. […]
Hit rate of the full screen: of about 2,100 compounds, about 1,100 (52%) were called active. Not shown: some 29% with an inconclusive outcome. The call rests on the fitted dose curve; in most records, active means well fitted inhibition curve with a large enough effect; inconclusive means small, poorly fitted or top-dose-only effect; inactive means no such curve, though single readings can be large or run the other way. So high a share suggests a set chosen from earlier hits. This is one part of the list.
Write down one outcome, taken from active, inactive

Consider the worked cases shown below.
molecule=CN1C(=S)N(c2cccnc2)C(=O)/C1=C\c1ccc(N(C)C)cc1 class_assignment=active
molecule="O=C(NCc1ccco1)C1Cc2c(-c3cccc(F)c3)ccnc2O1 (configuration not stated)" class_assignment=active
molecule="CC(=O)c1cccc(-c2ccnc3c2CC(C(=O)NCc2ccc(F)c(F)c2)O3)c1 (configuration not stated)" class_assignment=active
molecule=Cc1cc(NC(=O)/C(C#N)=C\c2ccc(-c3ccc(SC(F)F)cc3)o2)n(-c2ccccc2)n1 class_assignment=active
molecule=COc1ccc(-c2csc(NC(=S)NC(=O)/C=C/c3ccco3)n2)cc1Br class_assignment=active
molecule=O=c1[nH]c(CN2CCN(c3ccccc3)CC2)nc2scc(-c3ccccc3)c12 class_assignment=active
molecule=Cc1ccnc(NC(=S)NC(=O)/C=C/c2ccco2)c1 class_assignment=active
molecule=Cc1ccc2[nH]cc(/C=C/c3cc[n+](C)cc3)c2c1 class_assignment=active
molecule=COc1ccc(-n2nnnc2-c2cccc(OC)c2)cc1 class_assignment=active
molecule=CN1CCN(c2ccc([N+](=O)[O-])cc2C(=O)c2ccc(Br)cc2)CC1 class_assignment=active

Which outcome was assigned to CCOc1cccc(-n2nnnc2-c2ccc(OC)cc2)c1 in this test?
active

Fill in: this test's call for Cc1ccc(C(=O)c2cc([N+](=O)[O-])ccc2N2CCN(C)CC2)cc1 is ___
active

What classification did Cc1c(N2C(=O)/C(=C/c3ccc(N(C)C)cc3)N(C)C2=S)c(=O)n(-c2ccccc2)n1C end up with in this test?
active

Entry CC(=O)c1cccc(-c2ccnc3c2CC(C(=O)NCc2ccco2)O3)c1 (configuration not stated) : call = ?
active

What outcome does the record of this test show for CN1C(=O)/C(=C\c2ccc(N(C)C)cc2)OC1=S ?
active

Fill in: this test's call for Cc1ccc(C(=O)NC2c3ccccc3-c3ccccc32)cc1 is ___
active

How did this test come out for COc1ccc(-n2cc3c(-c4cccc(Br)c4)nnc(C)c3n2)cc1 ?
inactive

Which outcome was assigned to Cc1ccc(C(=O)c2cc([N+](=O)[O-])ccc2N2CCOCC2)cc1C in this test?
active

Returns: the outcome recorded for COc1ccc2[nH]cc(/C=C/c3cc[n+](C)cc3)c2c1 in this assay.
active

Dear colleague, could you share the recorded outcome for Cc1cc2nc(SCCOC(=O)Nc3cccc(Cl)c3)nc(C)c2cc1C when you have a moment?
inactive

What is the recorded call for this molecule in the test? Cn1ncc(N=Cc2c(O)ccc3ccccc23)c1C(=O)Nc1cccc(Cl)c1
active

Any idea what this test logged for Cc1cc(NC(=O)/C(C#N)=C/c2ccc(-c3ccc(SC(F)F)cc3)o2)n(-c2ccccc2)n1 ?
active

###

system_name: DNA dC->dU-editing enzyme APOBEC-3F (Homo sapiens) (UniProt Q8IUX4)
protocol_notes: qHTS for inhibitors of Vif-A3F interactions: Cherry picks counterscreen; further: nearly all actives have a fitted effect of over 65% in size
stated_conditions: HeLa A3F-eYFP/Vif cells, eYFP fluorescence, 24 h; series mostly up to 46.1 µM
In all, about 2,100 compounds went through this assay and about 1,100 (52%) were called active. About 29% were inconclusive and are not listed. Calls follow the shape of the dose curve; as a rule, active = well fitted inhibition curve with a large enough effect; inconclusive = small, poorly fitted or top-dose-only effect; inactive = no such curve, though single readings can be large or run the other way. The set was probably picked from earlier hits. The list shows a part of the results.
Return exactly one item of active, inactive

compound=Cc1cc2cc(C#N)c(SCC(=O)Nc3nonc3C)nc2cc1C system_name="DNA dC->dU-editing enzyme APOBEC-3F (Homo sapiens) (UniProt Q8IUX4)" class_assignment=active
compound=O=C(NCc1cccnc1)c1cccc(NS(=O)(=O)c2ccc(Br)cc2)c1 system_name="DNA dC->dU-editing enzyme APOBEC-3F (Homo sapiens) (UniProt Q8IUX4)" class_assignment=active
compound=Cc1cc(C(F)(F)F)c(C#N)c(SCC(=O)Nc2nc3ccccc3s2)n1 system_name="DNA dC->dU-editing enzyme APOBEC-3F (Homo sapiens) (UniProt Q8IUX4)" class_assignment=active
compound="CCN(CC)c1nc2ccccc2nc1C(C#N)C(=O)NCCc1ccccc1 (stereo unspecified)" system_name="DNA dC->dU-editing enzyme APOBEC-3F (Homo sapiens) (UniProt Q8IUX4)" class_assignment=active
compound="N#CC(C(=O)NCc1ccccc1)c1nc2ccccc2nc1N1CCCC1 (stereo unspecified)" system_name="DNA dC->dU-editing enzyme APOBEC-3F (Homo sapiens) (UniProt Q8IUX4)" class_assignment=active

Dear all, I need the recorded test outcome for Cc1cc(NC(=O)CSc2nc(-c3cccs3)nc3ccccc23)no1 , thank you.
active

Outcome? COc1ccc(NC(=O)c2c(Cl)n(C)c3ccccc23)cc1
active

Which outcome was assigned to Cc1sc2nc(CSCC(=O)Nc3ccccc3C#N)[nH]c(=O)c2c1C in this test?
inactive

// param item: O=[N+]([O-])c1ccc(C2=Nc3cc(Cl)ccc3OC2)cc1 ; yields the recorded call
inactive

Fill in: this test's call for CN(C)c1ccc(/C=C(\C#N)C(=O)Nc2nc3c(s2)CCN(Cc2ccccc2)C3)cc1 is ___
active

Name the outcome recorded for Cc1sc2nc(SCC(=O)N3CCOCC3)[nH]c(=O)c2c1-c1ccccc1 in the assay.
inactive

Call for entry CCOc1cc(S(=O)(=O)NCc2ccc(OC)cc2)c(OCC)cc1-n1cnnn1 :
active

Can you look up the reported call for Oc1ccc(C2=NNC(=NCc3ccc4c(c3)OCO4)SC2)c(O)c1 for me?
active

Please let me know the test result on file for CCOc1ccccc1NC(=O)Cn1nnc(C(=O)NCc2cccs2)c1N .
active

I'd appreciate the recorded outcome for CCC(=O)Nc1nc2ccc(NC(=O)c3cc(OC)c(OC)c(OC)c3)cc2s1 from this test.
inactive

Tell me the recorded outcome of this test for Cc1coc(NC(=O)CSc2nc(-c3ccncc3)cc(C(F)(F)F)c2C#N)n1 .
active

State the result this test recorded for N#C/C(=C\c1ccc(C(=O)O)cc1)c1nc2sc3c(c2c(=O)[nH]1)CCCC3 .
inactive
